System: HCC1937
protocol_text: drug sensitivity score (DSS), CellTiter-Glo (DSS (AUC-based score)); higher = stronger drug effect (viability inhibition or cytotoxicity); extreme values may be limits of the assay
assay_context: incubation time: 72 h
attribute_measured: drug sensitivity score

# input // map Cn1nnc2c(C(N)=O)ncn2c1=O [Temozolomide] to recorded drug sensitivity score (system: HCC1937)
# output 0

# input Now give it for C[C@]12C=CC(=O)C=C1CC[C@@H]1[C@@H]2C(=O)C[C@@]2(C)[C@H]1CC[C@]2(O)C(=O)CO too.
# output 0

# input Now give it for NC1(c2ccc(-c3nc4ccn5c(=O)[nH]nc5c4cc3-c3ccccc3)cc2)CCC1 too.
# output 0

----------
Tested on: HCC1143
assay_context: 72 h
We label by threshold. Values of EC50, CellTiter-Glo strictly beneath 500 nM are class 1. Values of 500 nM and up are class 0.

# input I wonder whether CCc1cnn2c(NCc3ccc[n+]([O-])c3)cc(N3CCCC[C@H]3CCO)nc12 [Dinaciclib] has EC50, CellTiter-Glo below 500 nM. Can you tell?
# output class 1

# input Now give it for CC(C)NC[C@@H](C(=O)N1CCN(c2ncnc3c2[C@H](C)C[C@H]3O)CC1)c1ccc(Cl)cc1 [GDC-0068] too.
# output class 0

# input Now give it for N[C@@H](Cc1ccc(N(CCCl)CCCl)cc1)C(=O)O [Melphalan] too.
# output class 0

----------
System: Hs578T
protocol_text: normalised response (% of control), CellTiter-Glo; higher = more viable cells (100 = DMSO, 0 = benzethonium chloride kill control)
assay_context: incubation time: 72 h
// reported normalised response for each item listed
Express it in %; write the number only.

compound | unit_symbol | normalised response
CCc1cnn2c(NCc3ccc[n+]([O-])c3)cc(N3CCCC[C@H]3CCO)nc12 [Dinaciclib] (1000 nM) | % | 17.1
C[C@@H]1C[C@H]2[C@@H]3CCC4=CC(=O)C=C[C@]4(C)[C@@]3(F)[C@@H](O)C[C@]2(C)[C@@]1(O)C(=O)CO [Dexamethasone] (10000 nM) | % | 105
Cn1cc(C[C@@H](N)C(=O)O)c2ccccc21 [1-methyl-D-tryptophan] (5000 nM) | % | 97

Continue with the compound presented below.
# input Could you share which normalised response value was measured for COc1cc2c(N3CCN(C(=O)Nc4ccc(OC(C)C)cc4)CC3)ncnc2cc1OCCCN1CCCCC1 [Tandutinib] (1000 nM) ?
# output 92.3

----------
Tested on: MFM-223
protocol_text: drug sensitivity score (DSS), CellTiter-Blue viability (DSS (AUC-based score)); higher = stronger viability inhibition; extreme values may be limits of the assay
assay_context: incubation time: 72 h
attribute_measured: drug sensitivity score

Some compounds with recorded drug sensitivity score:
compound | experimental_system | attribute_measured | observed_measurement
Cc1cc2c(F)c(Oc3ncnn4cc(OC[C@@H](C)O)c(C)c34)ccc2[nH]1 | MFM-223 | drug sensitivity score | 0
NC(=O)NO [Hydroxyurea] | MFM-223 | drug sensitivity score | 0
CC/C(=C(\c1ccccc1)c1ccc(OCCN(C)C)cc1)c1ccccc1 | MFM-223 | drug sensitivity score | 0
CC(C)C(=O)Nc1ccc([N+](=O)[O-])c(C(F)(F)F)c1 [Flutamide] | MFM-223 | drug sensitivity score | 0
COc1cc2c(Oc3ccc(NC(=O)C4(C(=O)Nc5ccc(F)cc5)CC4)cc3F)ccnc2cc1OCCCN1CCOCC1 | MFM-223 | drug sensitivity score | 9.7

# input Could you share which drug sensitivity score value was measured for Cc1c(N)nc([C@H](CC(N)=O)NC[C@H](N)C(N)=O)nc1C(=O)N[C@H](C(=O)N[C@H](C)[C@@H](O)[C@H](C)C(=O)N[C@H](C(=O)NCCc1nc(-c2nc(C(=O)NCCC[S+](C)C)cs2)cs1)[C@@H](C)O)[C@@H](OC1OC(CO)C(O)C(O)C1OC1OC(CO)C(O)C(OC(N)=O)C1O)c1cnc[nH]1 (some centres undefined) ?
# output 0

# input Now give it for Nc1nc(Cl)nc2c1ncn2[C@@H]1O[C@H](CO)[C@@H](O)[C@@H]1F too.
# output 0

# input Now give it for CC(C)C[C@H](NC(=O)[C@H](CCc1ccccc1)NC(=O)CN1CCOCC1)C(=O)N[C@@H](Cc1ccccc1)C(=O)N[C@@H](CC(C)C)C(=O)[C@@]1(C)CO1 too.
# output 26.4

# input Now give it for CCN(CC)CCOc1ccc(C(=C(Cl)c2ccccc2)c2ccccc2)cc1 too.
# output 2.02
